Origin of the recorded values: the RNAGym collection of RNA variant scans (doi:10.7554/elife.80360)

Could you please report measured self-cleavage for the items listed next?
B1: HDV Ribozyme (parent)
chain: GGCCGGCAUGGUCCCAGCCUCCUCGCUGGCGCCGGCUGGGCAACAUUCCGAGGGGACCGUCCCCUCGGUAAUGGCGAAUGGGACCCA

# Variants of: B1
# test.details: self-cleavage, relative activity (ratio to wild type); higher = more cleavage; co-transcriptional
Lab note: record the figure alone, no unit after it.

Item: C4U A8U | self-cleavage: 0.415

Item: G59C G67C | self-cleavage: 0.929

Item: C48A C57G | self-cleavage: 1.18

Item: C32G | self-cleavage: 0.103

Item: G59A G73C | self-cleavage: 0.394

Item: G2C G31A | self-cleavage: 0.0382

Item: C19A G53A | self-cleavage: 0.149

Item: C19A G34C | self-cleavage: 0.0739

Item: C22G U46A | self-cleavage: 0.0519

Item: C7A G74A | self-cleavage: 0.026

Item: G54A A70G | self-cleavage: 0.79

Item: C22G U79G | self-cleavage: 0.0665

Item: U23G G28C | self-cleavage: 0

Item: C7U C49U | self-cleavage: 0.727

Item: G25C G34A | self-cleavage: 0.143

Item: A16C G53A | self-cleavage: 0.674

Item: A51C G81A | self-cleavage: 0.323

Item: C26G G31A | self-cleavage: 0.744

Item: U27A C33U | self-cleavage: 1.01

Item: A43U U79C | self-cleavage: 0.127

Item: G39U C86G | self-cleavage: 0.784

Item: U60A C62G | self-cleavage: 0.997

Item: C7U G55A | self-cleavage: 0.724

Item: G31U C85G | self-cleavage: 0.481

Item: C21A C33G | self-cleavage: 0.0554

Item: C57U A71G | self-cleavage: 1.12

Item: U60G A71G | self-cleavage: 0.831

Item: C33U G35A | self-cleavage: 0.205

Item: C33U A87U | self-cleavage: 0.885

Item: U47C A83U | self-cleavage: 0.378

Item: G55A G68A | self-cleavage: 0.831

Item: A43U G53C | self-cleavage: 0.508

Item: C14U A83C | self-cleavage: 0.499

Item: A16G G31A | self-cleavage: 0.46

Item: G1U U46A | self-cleavage: 0.443

Item: U9C U72A | self-cleavage: 0.587

Item: C13U U79G | self-cleavage: 0.0519

Item: C13G U23C | self-cleavage: 0

Item: C48U G81U | self-cleavage: 0.327

Item: A45C C63U | self-cleavage: 0.727

Item: U20A U47G | self-cleavage: 0

Item: C7G G68A | self-cleavage: 0.0594

Item: C7U G40U | self-cleavage: 0.821

Item: A71C U72A | self-cleavage: 0.332

Item: G34A G39U | self-cleavage: 0.287

Item: C14A U65A | self-cleavage: 0.811

Item: C18A A87U | self-cleavage: 0.126

Item: G6C C75U | self-cleavage: 0.095

Item: C61G A87C | self-cleavage: 0.983

Item: G28C G59C | self-cleavage: 0.212

Item: G29A G31C | self-cleavage: 0.154

Item: U12A U23A | self-cleavage: 0.192

Item: C58U A71C | self-cleavage: 0.85

Item: G11U A70C | self-cleavage: 0.0536

Item: G39A A87C | self-cleavage: 0.578

Item: C64U C66U | self-cleavage: 1.01

Item: U37C A42U | self-cleavage: 0.295

Item: G17U C36U | self-cleavage: 0.166

Item: G6U A8U | self-cleavage: 0.403

Item: G50A C86G | self-cleavage: 0.884

Item: A43U G55C | self-cleavage: 0.399

Item: U47G A70U | self-cleavage: 1.4

Item: G17C U20C | self-cleavage: 0

Item: C26G G74A | self-cleavage: 0.441

Item: C26U C62A | self-cleavage: 1.08

Item: U37G C61G | self-cleavage: 0

Item: G5A G28A | self-cleavage: 0.0378

Item: C32U U47A | self-cleavage: 0.943
